Type: cell-based
Details: Staphylococcus aureus, overnight, 96-well plate
No end group written: not given here.

>  <Residue sequence>
KCKLFKKMLMLALKKVLTTGLPALKLTK [SEQ ID NO: 40]

>  <MIC, S. aureus>
32 µg/mL

$$$$
>  <Residue sequence>
KWKHALMKAHMLWHMIFHTALKPISS [SEQ ID NO: 52]

>  <MIC, S. aureus>
>

$$$$
>  <Residue sequence>
KWKSLVMMFKKPARRIFHTALKPISS [SEQ ID NO: 51]

>  <MIC, S. aureus>
>

$$$$
>  <Residue sequence>
KWKKWAHSPRKVLTRIFHTALKPISS [SEQ ID NO: 50]

>  <MIC, S. aureus>
>

$$$$
